Provide the recorded pIC50 for the entries that follow.
Biological target: Recombinant human cathepsin A (Homo sapiens (Human), UniProt P10619)
Sequence (P10619 29-326): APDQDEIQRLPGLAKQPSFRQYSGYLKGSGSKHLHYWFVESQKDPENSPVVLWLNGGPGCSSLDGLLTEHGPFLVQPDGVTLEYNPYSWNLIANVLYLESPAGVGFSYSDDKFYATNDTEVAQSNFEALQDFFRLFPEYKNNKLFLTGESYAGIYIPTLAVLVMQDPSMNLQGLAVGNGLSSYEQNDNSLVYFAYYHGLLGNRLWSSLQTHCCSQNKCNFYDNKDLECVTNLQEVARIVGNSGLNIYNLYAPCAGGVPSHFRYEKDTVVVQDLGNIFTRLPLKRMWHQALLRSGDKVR
Sequence (P10619 327-480): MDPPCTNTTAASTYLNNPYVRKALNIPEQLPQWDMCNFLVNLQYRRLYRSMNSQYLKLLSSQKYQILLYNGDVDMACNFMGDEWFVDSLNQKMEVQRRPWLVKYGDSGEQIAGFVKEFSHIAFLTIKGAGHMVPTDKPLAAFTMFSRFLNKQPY
Assay: Cathepsin A inhibitory activity (cleavage of Bodipy FL-labeled bradykinin, microfluidic capillary electrophoresis)
Assay type: biochemical
Details: read-out: Activity (IC50, cathepsin A inhibitory activity)
Give bare numbers, as −log10 of the molar value.

Please review the entries below; each comes with its answer.
COMPOUND	STUDY TARGET	TEST RESULT
COc1ncc(C(=O)N[C@@H](CC(=O)O)c2ccccc2C)cc1-c1ccccc1F [compound 418]	Recombinant human cathepsin A (Homo sapiens (Human), UniProt P10619)	5.97
COc1ccc(C(=O)N[C@@H](CC(=O)O)c2ccccc2Cl)nc1-c1ccc(C)cc1C [compound 450]	Recombinant human cathepsin A (Homo sapiens (Human), UniProt P10619)	5.80
Cc1cc(C(=O)N[C@@H](CC(=O)O)c2ccccc2C)nc(C)n1 [compound 55]	Recombinant human cathepsin A (Homo sapiens (Human), UniProt P10619)	5.28
COc1ccc(C(=O)N[C@@H](CC(=O)O)c2ccccc2F)nc1-c1ccc(Cl)cc1 [compound 258]	Recombinant human cathepsin A (Homo sapiens (Human), UniProt P10619)	5.28

// batch mode: one pIC50 value per listed entry
1. Cc1ccnc(C(=O)N[C@@H](CC(=O)O)c2ccccc2C)c1 [compound 14]
2. Cc1ccccc1[C@H](CC(=O)O)NC(=O)c1ccccn1 [compound 5]
3. COc1ccc(C(=O)N[C@@H](CC(=O)O)c2ccccc2Cl)nc1-c1ccc2ccccc2c1 [compound 427]
4. COc1ccccc1-c1cncc(C(=O)N[C@@H](CC(=O)O)c2ccccc2C)c1 [compound 67]
5. COc1ncc(C(=O)N[C@@H](CC(=O)O)c2ccccc2C)cc1-c1cccc(F)c1 [compound 414]
6. COc1ccc(C(=O)N[C@@H](CC(=O)O)c2ccc(C)cc2)nc1-c1cc(C(F)(F)F)ccc1F [compound 236]
7. COc1ccc(C(=O)N[C@@H](CC(=O)O)c2ccccc2F)nc1-c1ccc(F)cc1 [compound 257]

5.36
5.40
5.15
5.30
5.09
5.45
5.90

* * *

Target: Recombinant human cathepsin A (Homo sapiens (Human))
Assay: Cathepsin A inhibitory activity (cleavage of Bodipy FL-labeled bradykinin, microfluidic capillary electrophoresis)
Type: biochemical
Conditions: read-out: Activity [μM] (IC50, cathepsin A inhibitory activity)
Note to self: IC50 under 2 µM means fulfilled, ties and anything higher get not fulfilled.

Known results for compounds:
COMPOUND	ASSIGNED CLASS
Cc1ccc(-c2cccc(C(=O)N[C@@H](CC(=O)O)c3ccccc3C)n2)cc1 [compound 137]	fulfilled
COc1ccc(C(=O)N[C@@H](CC(=O)O)c2ccccc2C)nc1-c1ccncc1 [compound 365]	not fulfilled
COc1ccc(C(=O)N[C@@H](CC(=O)O)c2ccc(C)cc2)nc1-c1ccc(F)cc1 [compound 185]	fulfilled

Please determine if Cc1ccccc1[C@H](CC(=O)O)NC(=O)c1cccc(-c2ccc(F)cc2)n1 [compound 135] is below 2 µM in terms of IC50. fulfilled

// next record COc1ccc(C(=O)N[C@@H](CC(=O)O)c2ccccc2C)nc1-c1ccnc(N2CCOCC2)c1 [compound 381] not fulfilled

// next record Cc1ccccc1[C@H](CC(=O)O)NC(=O)c1cccc(-c2ccc(F)c(F)c2)n1 [compound 151] fulfilled

// next record COc1ccc(C(=O)N[C@@H](CC(=O)O)c2ccccc2C)nc1-c1ccc(C(C)=O)s1 [compound 364] not fulfilled

// next record COc1ccc(C(=O)N[C@@H](CC(=O)O)c2ccc(C)cc2)nc1-c1ccc(C(C)=O)s1 [compound 210] not fulfilled

* * *

Biological target: Recombinant human cathepsin A (Homo sapiens (Human))
Assay: Cathepsin A inhibitory activity (cleavage of Bodipy FL-labeled bradykinin, microfluidic capillary electrophoresis)
Format: biochemical
Settings: read-out: Activity (IC50, cathepsin A inhibitory activity)
Note to self: IC50 under 5 µM means t, ties and anything higher get f.

Known results for compounds:
COc1ncc(C(=O)N[C@@H](CC(=O)O)c2ccccc2C)cc1-c1cccc(-c2ccccc2)c1 f
COc1ccc(C(=O)N[C@@H](CC(=O)O)c2ccccc2Cl)nc1-c1ccc(C(F)(F)F)cc1F f
COc1ccc(C(=O)N[C@@H](CC(=O)O)c2ccccc2F)nc1-c1cccc(-c2ccccc2)c1 t

Please determine if COc1ccc(C(=O)N[C@@H](CC(=O)O)c2ccccc2Cl)nc1-c1ccnc(N2CCOCC2)c1 is below 5 µM in terms of IC50. f

// next record COc1ccc(C(=O)N[C@@H](CC(=O)O)c2ccccc2Cl)nc1-c1cccnc1 f

* * *

Biological target: Recombinant human cathepsin A (Homo sapiens (Human), UniProt P10619)
Experiment: Cathepsin A inhibitory activity (cleavage of Bodipy FL-labeled bradykinin, microfluidic capillary electrophoresis)
Format: biochemical
Details: read-out: Activity [μM] (IC50, cathepsin A inhibitory activity)
Provide the recorded IC50 for the entries that follow.
// return the numeric value with its unit appended

Please review the entries below; each comes with its answer.
COc1ccc(C(=O)N[C@@H](CC(=O)O)c2ccccc2Cl)nc1-c1cccc(C(F)(F)F)c1 3.74 µM
COc1ccc(C(=O)N[C@@H](CC(=O)O)c2ccccc2C)nc1-c1cccc(C2(O)COC2)c1 2.39 µM
COc1ncc(C(=O)N[C@@H](CC(=O)O)c2ccccc2Cl)cc1-c1cccc(C)c1 6.57 µM
COc1ncc(C(=O)N[C@@H](CC(=O)O)c2ccccc2Cl)cc1-c1ccccc1 3.49 µM
COc1ccc(C(=O)N[C@@H](CC(=O)O)c2ccc(C)cc2)nc1-c1cccc(Cl)c1 2.74 µM

// batch mode: one IC50 value per listed entry
1. COc1ccc(F)c(-c2nc(C(=O)N[C@@H](CC(=O)O)c3ccccc3F)ccc2OC)c1
2. Cc1ccc(-c2cccc(C(=O)N[C@@H](CC(=O)O)c3ccccc3C)n2)c(C)c1
3. COc1ncc(C(=O)N[C@@H](CC(=O)O)c2ccccc2Cl)cc1-c1ccc(Cl)cc1
4. Cc1ccccc1[C@H](CC(=O)O)NC(=O)c1cccc(-c2ccc(Cl)cc2)n1
5. COc1ccc(C(=O)N[C@@H](CC(=O)O)c2ccccc2C)nc1-c1ccc(F)c(Cl)c1

["2.92 µM", "1.43 µM", "10.4 µM", "4.85 µM", "1.46 µM"]

* * *

Biological target: Recombinant human cathepsin A (Homo sapiens (Human))
Assay: Cathepsin A inhibitory activity (cleavage of Bodipy FL-labeled bradykinin, microfluidic capillary electrophoresis)
Assay type: biochemical
Details: read-out: Activity [μM] (IC50, cathepsin A inhibitory activity)
Note to self: IC50 under 4 µM means yes, ties and anything higher get no.

COc1ccc(C(=O)N[C@@H](CC(=O)O)c2ccc(C)cc2)nc1-c1cccc(-c2ccccc2)c1 yes
COc1ccc(C(=O)N[C@@H](CC(=O)O)c2ccccc2Cl)nc1-c1ccc(F)c(Cl)c1 no

Please determine if Cc1ccccc1[C@H](CC(=O)O)NC(=O)c1cccc(-c2ccc3c(c2)OCO3)n1 is below 4 µM in terms of IC50. yes

// next record Cc1ccccc1[C@H](CC(=O)O)NC(=O)c1cncc(-c2cccc(C)c2C)c1 yes

// next record COc1ccc(C(=O)N[C@@H](CC(=O)O)c2ccccc2F)nc1-c1cccc(-c2nnc(C)o2)c1 no

// next record Cc1ccccc1[C@H](CC(=O)O)NC(=O)c1cccc(-c2cccc(C#N)c2)n1 no

// next record COc1cccc(-c2nc(C(=O)N[C@@H](CC(=O)O)c3ccc(C)cc3)ccc2OC)c1 no

// next record COc1ccc(C(=O)N[C@@H](CC(=O)O)c2ccccc2C)nc1-c1ccccc1C(=O)N(C)C yes

// next record COc1ccc(C(=O)N[C@@H](CC(=O)O)c2ccccc2Cl)nc1-c1ccc(C)cc1 yes

// next record Cc1ccccc1[C@H](CC(=O)O)NC(=O)c1cccc(-c2cccc(OCC3CC3)c2)n1 no

// next record COc1ccc(C(=O)N[C@@H](CC(=O)O)c2ccc(C)cc2)nc1-c1ccc(C)cc1 no

// next record Cc1ccccc1[C@H](CC(=O)O)NC(=O)c1cccc(-c2ccc(C(F)(F)F)cc2)n1 no

// next record COc1ccc(C(=O)N[C@@H](CC(=O)O)c2ccc(C)cc2)nc1-c1ccc(Cl)cc1 yes

// next record COc1ccc(C(=O)N[C@@H](CC(=O)O)c2ccccc2C)nc1-c1cc(C)cc(Cl)c1 no

* * *

Provide the recorded IC50 for the entries that follow.
Target: Recombinant human cathepsin A (Homo sapiens (Human))
Assay: Cathepsin A inhibitory activity (cleavage of Bodipy FL-labeled bradykinin, microfluidic capillary electrophoresis)
Type: biochemical
Conditions: read-out: Activity (IC50, cathepsin A inhibitory activity)
Numbers only, in µM.

Please review the entries below; each comes with its answer.
COc1ccc(C(=O)N[C@@H](CC(=O)O)c2ccccc2F)nc1-c1cccc(C#N)c1 9.57
COc1ccc(C(=O)N[C@@H](CC(=O)O)c2ccccc2Cl)nc1-c1cc(F)cc(F)c1 2.39
COc1ccc(C(=O)N[C@@H](CC(=O)O)c2ccccc2Cl)nc1-c1cc(C)cc(Cl)c1 9.49

// batch mode: one IC50 value per listed entry
1. COc1ccc(C(=O)N[C@@H](CC(=O)O)c2ccccc2Cl)nc1-c1cccc(F)c1
2. COc1ccc(C(=O)N[C@@H](CC(=O)O)c2ccc(C)cc2)nc1-c1ccc(C)c(F)c1

1. 1.54
2. 1.29
